- measured_on: CYP21A2 (Homo sapiens, UniProt P08686)
- Sequence (P08686 with tags, fused parts or gaps): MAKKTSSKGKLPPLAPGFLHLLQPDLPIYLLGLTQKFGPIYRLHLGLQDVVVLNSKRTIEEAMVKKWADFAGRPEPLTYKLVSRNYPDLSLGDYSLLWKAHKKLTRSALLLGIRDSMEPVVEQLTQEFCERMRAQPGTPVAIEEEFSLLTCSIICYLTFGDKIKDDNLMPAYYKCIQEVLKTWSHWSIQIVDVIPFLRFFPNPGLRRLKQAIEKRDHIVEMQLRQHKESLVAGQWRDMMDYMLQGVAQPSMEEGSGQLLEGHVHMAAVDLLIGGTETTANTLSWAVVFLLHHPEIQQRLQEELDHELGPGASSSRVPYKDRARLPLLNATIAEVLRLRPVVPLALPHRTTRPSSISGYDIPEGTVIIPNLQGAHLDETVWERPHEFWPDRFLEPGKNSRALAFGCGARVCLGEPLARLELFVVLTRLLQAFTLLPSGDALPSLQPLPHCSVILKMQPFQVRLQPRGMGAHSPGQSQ
metric: IC50 (nM)
Give bare numbers, in nM.

C[C@]12CC[C@H]3[C@@H](C[C@@H]4O[C@@]45C[C@@H](O)CC[C@]35C)[C@@H]1CC=C2c1cccnc1    42.1

Kindly consider the entry below.
Noted for C[C@]12CC[C@H](O)C[C@@H]1C(=NO)C[C@@H]1[C@@H]2CC[C@]2(C)C(c3cccnc3)=CC[C@@H]12 [13b] : its IC50 reads 1390

All figures here come from paper PMC6367708.
